This section presents pIC50 values reported for human PDE10A2 (Homo sapiens (Human)) in the literature.
pIC50: −log10 of the molar value.
propertyName: pIC50

>>> valueobserved("CN(CC(C)(C)O)C(=O)c1ncncc1NC(=O)c1nc(C2CC2)cnc1Nc1cncnc1")
7.34
>>> valueobserved("c1ccc2nc(N[C@H]3C[C@H](n4cnc5c(N6CCOCC6)ncnc54)C3)ncc2c1")
6.31
>>> valueobserved("COCCN(C)C(=O)c1cnn(C)c1C(=O)Nc1ccn2cc(-c3ccccc3)nc2n1")
8.07

P. O=C(Nc1ccn2cc(-c3ccccc3)nc2n1)c1ccno1
Q. CC1(C)C(=O)N([C@H]2C[C@H](Nc3nc4cc(F)c(F)cc4s3)C2)c2nccnc21
R. CN(CC(C)(C)O)C(=O)c1ncccc1NC(=O)c1nc(C2CC2)cnc1Nc1cncnc1
S. Cc1c(C(F)(F)F)nn2ccc(CCc3nc(N4CCCC4)nn3C)nc12
Arrange the 4 compounds from largest to smallest pIC50. Respond with an ordered listing of the labels, as requested.
Q, R, S, P
(Q: 9.38, R: 8.02, S: 7.48, P: 6.02)
